- assay.notes: inhibitors of Clostridioides difficile proliferation – 4-point retest, confirmation (AID 1224921);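 note: plate controls were DMSO wells for no effect and levofloxacin 16 µg/mL wells for full effect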
- test.settings: Clostridioides difficile clinical isolate growth, OD600, 24 h, active compounds read low; at 30 µM unless noted
Among all 1,400 compounds or so, about 350 (25%) were called active. Another 2% or so got no clear call; they are omitted. Only a sample is shown. Measured potencies and affinities stand elsewhere.
property.name: max activity

Example results:
| smiles.structure | max activity |
| --- | --- |
| CCS(=O)(=O)Nc1ccc2c(c1)C(=O)N(C)C[C@H](OC)[C@@H](C)CN(C(C)=O)[C@H](C)CO2 | 8.06% (inactive) |
| C[C@@H]1CN([C@H](C)CO)C(=O)c2cccc(NC(=O)c3ccncc3)c2O[C@H]1CN(C)Cc1ccc(Cl)c(Cl)c1 | 16.6% (inactive) |
| C[C@@H]1CN([C@@H](C)CO)C(=O)c2cc(C#CC3CCCCC3)cnc2O[C@@H]1CN(C)Cc1cccnc1 | 58.9% (inactive) |
| CCC(=O)Nc1ccc2c(c1)C(=O)N(C)C[C@H](OC)[C@H](C)CN(C(=O)CN1CCOCC1)[C@@H](C)CO2 | -5.93% [at 8 µM] (inactive) |
| C[C@@H]1CN([C@@H](C)CO)C(=O)c2cc(C3=CCCCC3)cnc2O[C@@H]1CN(C)C(=O)c1cccc(F)c1 | 24.7% (inactive) |

Complete the entry with the larger activity for Cc1cc(C(=O)Nc2cccc3c2O[C@H](CN(C)Cc2ccc(Oc4ccccc4)cc2)[C@@H](C)CN([C@H](C)CO)C3=O)n(C)n1 41% (inactive)

Return value of max activity for input Cc1ccc(-c2ccc3c(c2)O[C@H](CN(C)Cc2ccncc2)[C@@H](C)CN([C@@H](C)CO)S3(=O)=O)cc1 , no commentary. 32.6% (inactive)

====

// values below are reported max activity
- assay.notes: inhibitors of Clostridioides difficile proliferation – 4-point retest, confirmation (AID 1224921);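 note: plate controls were DMSO wells for no effect and levofloxacin 16 µg/mL wells for full effect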
- test.settings: Clostridioides difficile clinical isolate growth, OD600, 24 h, active compounds read low; at 30 µM unless noted
The campaign covered roughly 1,400 compounds. About 350 (25%) were called active. Roughly 2% stayed inconclusive and do not appear here. A selection follows. Measured potencies and affinities stand elsewhere.

Please review the entries below; each comes with its answer.
| smiles.structure | max activity |
| --- | --- |
| CO[C@H]1CN(C)C(=O)c2cc(NC(C)=O)ccc2OC[C@@H](C)N(Cc2nccs2)C[C@H]1C | -12.5% [at 8 µM] (inactive) |
| CCCC(=O)Nc1ccc2c(c1)C(=O)N(C)C[C@@H](OC)[C@H](C)CN(CC1CCOCC1)[C@@H](C)CO2 | -8.25% (inactive) |
| CO[C@H]1CN(C)C(=O)c2cc(NC(=O)Nc3ccc(F)cc3)ccc2OC[C@H](C)NC[C@@H]1C | -22.1% (inactive) |
| O=C(C[C@H]1C[C@H]2c3cc(NS(=O)(=O)c4ccc(F)cc4)ccc3O[C@H]2[C@H](CO)O1)NCc1ccc(-c2ccccc2)cc1 | -6.35% [at 1.95 µM] (inactive) |
| COc1ccc(CN(C)C[C@H]2OCCCC[C@H](C)Oc3ccc(NC(=O)Nc4ccc(C(F)(F)F)cc4)cc3C(=O)N([C@H](C)CO)C[C@H]2C)cc1 | 38.6% [at 1.95 µM] (inactive) |
| CO[C@H]1CN(C)C(=O)c2cc(NC(=O)Nc3ccc(F)cc3)ccc2OC[C@@H](C)NC[C@@H]1C | -7.9% [at 0.5 µM] (inactive) |

Recall and state the measured max activity for CO[C@@H]1CN(C)C(=O)c2ccc(NC(=O)Nc3ccc4c(c3)OCO4)cc2OC[C@H](C)NC[C@H]1C . -8.6% [at 0.5 µM] (inactive)

Give reported max activity value for CO[C@@H]1CN(C)C(=O)c2cc(NC(=O)Nc3ccc(F)cc3)ccc2OC[C@H](C)NC[C@H]1C -13.4% [at 1.95 µM] (inactive)

Let me know recorded max activity for COc1ccc(CN(C)C[C@H]2OCCCC[C@@H](C)Oc3ccc(NC(=O)Nc4ccc(C(F)(F)F)cc4)cc3C(=O)N([C@@H](C)CO)C[C@H]2C)cc1 , thanks. 38.8% [at 1.95 µM] (inactive)

Determine from records and report max activity for CO[C@H]1CN(C)C(=O)c2ccc(NC(=O)Nc3cccc(Cl)c3)cc2OC[C@H](C)NC[C@@H]1C -12.1% [at 8 µM] (inactive)

Give max activity for C[C@H]1CN([C@@H](C)CO)C(=O)Cc2cc(NS(C)(=O)=O)ccc2O[C@@H]1CN(C)Cc1ccccc1 11.3% (inactive)

Dear colleague, please send me the reported max activity for COc1ccc(CN(C)C[C@@H]2OCCCC[C@H](C)Oc3ccc(NC(=O)Nc4ccc(C(F)(F)F)cc4)cc3C(=O)N([C@@H](C)CO)C[C@H]2C)cc1 when you can. 21.3% [at 8 µM] (inactive)

Return max activity (reported value) for this compound: C[C@H](CO)N1C[C@H](C)[C@@H](CN(C)S(=O)(=O)c2cn(C)cn2)OCCCC[C@H](C)Oc2ccc(NC(=O)Nc3cccc4ccccc34)cc2C1=O 18.8% (inactive)

Provide measured max activity value, entry: COc1ccc(CN(C)C[C@H]2OCCCC[C@H](C)Oc3ccc(NC(=O)Nc4ccc(C(F)(F)F)cc4)cc3C(=O)N([C@H](C)CO)C[C@@H]2C)cc1 35.8% (inactive)

Consider the compound O=C(N[C@H]1C=C[C@@H](CC(=O)N2CCc3ccccc3C2)O[C@@H]1CO)C1CC1 . State its measured max activity. -6.96% (inactive)
